Where do the numbers come from? From PubChem BioAssay AID720709.

# study_system: Rap guanine nucleotide exchange factor 3 (Homo sapiens) (UniProt O95398)
# Sequence (O95398 whole entry, looked up): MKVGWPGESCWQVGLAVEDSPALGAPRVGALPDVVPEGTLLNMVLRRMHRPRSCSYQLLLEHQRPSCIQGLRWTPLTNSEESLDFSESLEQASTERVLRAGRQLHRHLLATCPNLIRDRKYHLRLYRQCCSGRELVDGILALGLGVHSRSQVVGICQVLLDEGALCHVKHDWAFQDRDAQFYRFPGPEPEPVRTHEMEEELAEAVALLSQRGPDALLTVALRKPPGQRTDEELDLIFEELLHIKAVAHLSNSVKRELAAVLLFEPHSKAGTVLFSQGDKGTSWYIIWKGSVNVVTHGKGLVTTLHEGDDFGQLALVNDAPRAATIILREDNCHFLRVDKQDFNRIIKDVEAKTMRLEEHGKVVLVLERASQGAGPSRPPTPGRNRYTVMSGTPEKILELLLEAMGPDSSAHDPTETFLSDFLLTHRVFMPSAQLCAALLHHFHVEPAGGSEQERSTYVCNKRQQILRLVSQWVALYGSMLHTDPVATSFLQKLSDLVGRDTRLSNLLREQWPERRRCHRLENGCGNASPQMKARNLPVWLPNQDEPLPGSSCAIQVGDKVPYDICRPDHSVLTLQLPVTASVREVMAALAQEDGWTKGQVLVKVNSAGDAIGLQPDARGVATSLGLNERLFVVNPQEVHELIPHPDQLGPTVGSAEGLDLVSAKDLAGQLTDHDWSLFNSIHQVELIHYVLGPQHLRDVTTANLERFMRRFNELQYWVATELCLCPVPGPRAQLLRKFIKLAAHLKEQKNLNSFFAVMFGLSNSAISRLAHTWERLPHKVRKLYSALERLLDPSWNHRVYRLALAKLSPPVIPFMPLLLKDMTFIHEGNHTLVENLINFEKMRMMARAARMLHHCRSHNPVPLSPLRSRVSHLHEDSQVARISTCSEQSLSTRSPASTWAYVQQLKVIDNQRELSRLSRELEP
# test_details: qHTS for Antagonist of cAMP-regulated guanine nucleotide exchange factor 3 (EPAC1): primary screen; also: nearly all actives have a fitted effect of over 50% in size; also: potency is read from the fitted curve at half-maximal effect
# details: EPAC1 GEF assay, Rap1b-BODIPY-GDP exchange fluorescence; series mostly up to 115 µM
The campaign covered roughly 360,000 compounds. About 520 (0.14%) were called active. Another 3% or so got no clear call; they are omitted. This is one part of a sample in which actives are shown more often than they occur.

compound	Potency
N#Cc1c(-c2ccccc2)nc(SCc2cccc(C(F)(F)F)c2)[nH]c1=O	70.8 µM (active)
CC(=O)OCC(C)n1c(=O)c2ccccc2n1C(C)=O (stereo unspecified)	inactive
Nc1nc2c(Br)ccc(Br)c2cc1C(=O)NCCc1ccccc1	inactive
C[N+](C)(C)CCNC(=O)c1c[nH]c2ccccc12	inactive
CC(=O)CSc1nc(CCc2ccccc2)c(C#N)c(=O)[nH]1	inactive
FC(F)(F)c1cccc(-c2nc3ccccc3n2C(c2ccccc2)c2nc3ccccc3[nH]2)c1 (stereo unspecified)	inactive

###

# study_system: Rap guanine nucleotide exchange factor 3 (Homo sapiens) (UniProt O95398)
# test_details: qHTS for Antagonist of cAMP-regulated guanine nucleotide exchange factor 3 (EPAC1): primary screen; also: nearly all actives have a fitted effect of over 50% in size
# details: EPAC1 GEF assay, Rap1b-BODIPY-GDP exchange fluorescence; series mostly up to 115 µM
The whole screen tested about 360,000 compounds, of which about 520 (0.14%) were called active. Roughly 3% stayed inconclusive and do not appear here. Calls follow the shape of the dose curve; as a rule, active = well fitted inhibition curve with a large enough effect; inconclusive = small, poorly fitted or top-dose-only effect; inactive = no such curve, though single readings can be large or run the other way. The list comes from a sample in which actives are over-represented; it also holds close analogues and randomly drawn compounds.
Classes used: active, inactive

compound	classification
COC(=O)[C@@]1(Sc2ccc(C)cc2)CC(=O)N(c2cccc(SC)c2)[C@@H]1c1ccccc1	inactive
CC(C)C[C@@H]1COc2cc(N3CCC[C@@H]3CO)ccc2S(=O)(=O)N1	inactive
CC(C)C1C(=O)N(Cc2cn(CCC3OCCO3)nn2)CCS(=O)(=O)N1Cc1ccc(-c2ccccc2C(F)(F)F)cc1 (centres undefined)	inactive
CCCCCc1c(Cc2ccccc2)ncn1CCc1ccccc1OC	inactive
CCC(C)CN1C(=O)CSCC1(C)C(=O)NCc1ccccc1 (centres undefined)	inactive
O=C1Nc2ccccc2NC(c2ccc3c(c2)OCO3)=C1N(Cc1ccc(F)cc1)C(=O)c1ccco1	inactive
Fc1cccc(Cc2c(-c3cccc(Cl)c3)nc3ccc(Br)cn23)c1	inactive
COC(=O)[C@]12CCCCC=C1N(Cc1ccccc1)C(=O)[C@H](CC(=O)NCc1ccc(C)o1)C2	inactive
COC(=O)C[C@H]1C=C[C@@H](NS(=O)(=O)c2ccc(C)cc2)[C@@H](CO)O1	inactive
Oc1cccc2cc(-c3ccncc3)cnc12	inactive
CCOc1ccc(CC(=O)Nc2ccc(S(=O)(=O)Nc3cc(C)on3)cc2)cc1OCC	inactive
CCOc1ccc(CCN2C(=S)N([C@@H](CC(C)C)CN3CCC[C@@H]3CN3C(=S)NC[C@@H]3Cc3ccc(O)cc3)C[C@@H]2Cc2ccc(O)cc2)cc1	inactive
CC(C)c1ccc2c(c1)c(SC(C)(C)C)c(CC(C)(C)C(=O)O)n2Cc1ccc(Cl)cc1	active
COC(=O)C1(C(=O)OC)C/C=C\CN(S(=O)(=O)c2ccccc2[N+](=O)[O-])CCC1	inactive
CCOc1ccc(Br)cc1S(=O)(=O)Nc1ccc(S(=O)(=O)Nc2cc(C)on2)cc1	active
CC(C)OC(=O)CC(=O)CC(O)c1cccc([N+](=O)[O-])c1 (centres undefined)	inactive
COc1ccc(C(=O)NCC[N+](C)(C)C)cc1	inactive
COc1ccc(OC)c(CN2C(=O)CCC2(C)c2nnnn2Cc2ccccc2)c1 (centres undefined)	inactive
O=C(Nc1ccc(F)cc1)C(CCc1ccccc1)N1CCN(CC(=O)N2CCCC2)CC1 (centres undefined)	inactive
CCCCC(O)C1=C[N+](=O)CC=C1 (centres undefined)	inactive
CCCNC(=O)c1cc2c(c(-c3cccc(-c4ccc(C#N)cc4)c3)n1)[C@@H](CCO)N(C(=O)CC)C2	inactive
CC1(C(=O)NCc2ccccc2)CSCC(=O)N1CCCN1CCOCC1 (centres undefined)	inactive
COC(=O)[C@]12CCCCC=C1N(Cc1ccc3c(c1)OCO3)C(=O)[C@H](CC(=O)NCc1cccs1)C2	inactive
CC1(C)OC(=O)C2=C(C[C@@H](C3CCCCC3)O[C@@H]2c2ccc(Cl)cc2)O1	inactive
Cc1ccc2nc(-c3ccco3)c(Cc3cccc(Cl)c3)n2c1	inactive
COC(=O)[C@@]12C[C@@H](CC(=O)NCCCCc3ccccc3)C(=O)N(Cc3ccccc3)C1=CCC(C)(C)C2	inactive
Cc1cccc(C)c1NC(=O)C(c1cccc(F)c1)N1CCN(C)CC1 (centres undefined)	inactive
CCOc1ccc(C(=O)Nc2ccc(S(=O)(=O)Nc3cc(C)on3)cc2)cc1	inactive
CCCCNC(=O)C[C@@H]1C[C@@]2(C(=O)OCC)CCC=C2N(Cc2ccco2)C1=O	inactive
CCOC(=O)[C@]12CCCC=C1N(CCC1=CCCCC1)C(=O)[C@H](CC(=O)N1CCCCC1)C2	inactive
COC(=O)C[C@@H]1C=C[C@@H](NS(=O)(=O)c2cccc(OC)c2)[C@@H](CO)O1	inactive
CCCNC(=O)C[C@@H]1CC[C@@H]2[C@H](COC[C@H](O)CN2C(=O)c2cc(Cl)cc(Cl)c2)O1	inactive
CCC(C(=O)NC(C)(C)C)n1c(-c2ccccc2)nc2ccccc21 (centres undefined)	inactive
CC1(C(=O)Nc2ccc3c(c2)OCCO3)CSCC(=O)N1CCOc1ccccc1 (centres undefined)	inactive
CCOC(=O)[C@]12CCCC=C1N(Cc1ccc(Cl)cc1Cl)C(=O)[C@H](CC(=O)N1CCCCC1)C2	inactive
C[C@@H]1CC2=C(C(=O)OC(C)(C)O2)[C@@H](C2CC2)O1	inactive
COc1ccc(CC(N)c2csc(NC(=O)Nc3ccc(C(C)C)cc3)n2)cc1 (centres undefined)	inactive
O=C(OC1CC2CC1[C@H]1CCCCN1C2=O)N1CCOCC1 (some centres undefined)	inactive
CCC(c1nnnn1-c1ccc2c(c1)OCCO2)N1CCN(c2ccc(C(F)(F)F)cn2)CC1 (centres undefined)	inactive
